target: panel of 203 kinases (Homo sapiens, UniProt P41240); construct: purchased DiscoverX (KINOMEscan); assay: KINOMEscan competitive binding, whole panel; conditions: 10 µM, n=1; kinase CSK; read-out: Percent inhibition CSK
Sequence (P41240 whole entry): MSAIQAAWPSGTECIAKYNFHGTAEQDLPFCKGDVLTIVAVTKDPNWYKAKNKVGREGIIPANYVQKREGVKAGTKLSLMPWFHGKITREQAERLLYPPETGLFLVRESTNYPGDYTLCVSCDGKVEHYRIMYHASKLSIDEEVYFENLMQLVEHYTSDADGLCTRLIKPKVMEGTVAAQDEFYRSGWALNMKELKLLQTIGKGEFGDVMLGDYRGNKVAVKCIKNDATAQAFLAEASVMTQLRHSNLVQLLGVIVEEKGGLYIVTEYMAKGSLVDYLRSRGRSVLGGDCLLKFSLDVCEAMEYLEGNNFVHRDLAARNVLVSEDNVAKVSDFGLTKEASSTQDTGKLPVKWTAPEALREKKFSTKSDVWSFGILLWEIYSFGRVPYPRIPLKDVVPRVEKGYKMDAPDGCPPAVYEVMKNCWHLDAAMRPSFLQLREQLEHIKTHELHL
parameter: inhibition at 10 µM (%)
# unit: % | format: bare number

Some solved entries appear below for comparison.
Q: Can you look up inhibition at 10 µM on panel of 203 kinases (Homo sapiens, UniProt P41240) for CN1CCN(c2ccc(Nc3nccc(-c4cnn5ncccc45)n3)cc2C#N)CC1 ?
Ans: 83

Q: Can you look up inhibition at 10 µM on panel of 203 kinases (Homo sapiens, UniProt P41240) for COc1ccc(Nc2nccc(-c3cnn4ncccc34)n2)cc1 ?
Ans: 0

Q: Can you look up inhibition at 10 µM on panel of 203 kinases (Homo sapiens, UniProt P41240) for Cc1ccc(O)cc1Nc1ccnc(Nc2cccc(C(N)=O)c2)n1 ?
Ans: 100

Q: Can you look up inhibition at 10 µM on panel of 203 kinases (Homo sapiens, UniProt P41240) for Cc1ccc(O)cc1N(C)c1ccnc(Nc2cccc(S(N)(=O)=O)c2)n1 ?
Ans: 100

Q: Can you look up inhibition at 10 µM on panel of 203 kinases (Homo sapiens, UniProt P41240) for c1ccc(COc2cccc(-c3ccnc4[nH]ccc34)c2)cc1 ?
Ans: 0

More entries:
Q: Can you look up inhibition at 10 µM on panel of 203 kinases (Homo sapiens, UniProt P41240) for COc1cc(Nc2nccc(-c3sc(N)nc3-c3cccc(NC(=O)c4c(F)cccc4F)c3)n2)cc(OC)c1OC ?
Ans: 100

Q: Can you look up inhibition at 10 µM on panel of 203 kinases (Homo sapiens, UniProt P41240) for Clc1ccc(Nc2ncc(-c3ccccc3)s2)cc1 ?
Ans: 0

Q: Can you look up inhibition at 10 µM on panel of 203 kinases (Homo sapiens, UniProt P41240) for Fc1cccc(COc2ccc(Nc3ncnc4c3CN(CCN3CCOCC3)CC4)cc2Cl)c1 ?
Ans: 0

Q: Can you look up inhibition at 10 µM on panel of 203 kinases (Homo sapiens, UniProt P41240) for Nc1ncc2c(-c3ccncc3)c[nH]c2n1 ?
Ans: 0

Q: Can you look up inhibition at 10 µM on panel of 203 kinases (Homo sapiens, UniProt P41240) for C[C@@H](Oc1cc(-c2cnc3ccccn23)sc1C(N)=O)c1ccccc1Cl ?
Ans: 0

###

assay: Host cell cytotoxicity assay (CellTiter-Glo); conditions: human, HepG2 cells
parameter: CC50 at 48 h (µM)
# unit: µM | format: bare number

Q: Dear colleague, I am looking for the recorded CC50 at 48 h of the following molecule: Fc1cccc(COc2ccc(Nc3ncnc4c3CN(CCN3CCOCC3)CC4)cc2Cl)c1 [Compound 6]
Ans: 46.7

More entries:
Q: Dear colleague, I am looking for the recorded CC50 at 48 h of the following molecule: Nc1ncc2c(-c3ccncc3)c[nH]c2n1 [Compound 11]
Ans: 50.1

Q: Dear colleague, I am looking for the recorded CC50 at 48 h of the following molecule: COc1cc(Nc2nccc(-c3sc(N)nc3-c3cccc(NC(=O)c4c(F)cccc4F)c3)n2)cc(OC)c1OC [Compound 7]
Ans: 2.6

Q: Dear colleague, I am looking for the recorded CC50 at 48 h of the following molecule: Cc1ccc(O)cc1Nc1ccnc(Nc2cccc(C(N)=O)c2)n1 [Compound 3]
Ans: 33.1
